- PROTOCOL DETAILS: DNA intercalators displacing acridine orange, dose response, artefact control for KSHV LANA DNA-binding inhibitor project, biochemical, fluorescence polarization, cherry-picked samples, set 2 (AID 504727)
- CONDITION INFO: Acridine orange-DNA displacement; series mostly up to 35 µM
Active and inactive are the calls of the source.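 How the source made its calls: active means fitted half-maximal concentration AC50 at or below ten times the highest valid tested dose, with signal falling as DNA is displaced (actives reach about 34 µM in these data); inconclusive means flat fit at moderate signal loss, or poor fit quality; inactive means the rest, including signal rising instead of falling.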
Hi there, use one of these labels in your reply, thanks! active, inactive

Look over these answered cases.
O=C(/C=C/c1ccco1)Nc1ccccc1C(=O)Nc1cccc(C(=O)O)c1
inactive
Cc1c(C)n(CCC(=O)O)c2ccccc12
inactive
CCN(C(=O)COC(=O)c1ccc([N+](=O)[O-])o1)C1CCCCC1
inactive

Test call, this molecule: COc1cc(C(=O)O)cc(NC(=O)c2ccco2)c1OC
inactive

Test call, this molecule: COc1cccc2c1C(=O)c1c(O)c3c(c(O)c1C2=O)C[C@@](O)(C(C)=O)C[C@@H]3O[C@H]1C[C@H](N)[C@H](O)[C@H](C)O1
active

Test call, this molecule: COc1cccc2c1C(=O)c1c(O)c3c(c(O)c1C2=O)CC(O)(C(C)=NNC(=O)c1ccc(Cl)c(Cl)c1)CC3OC1CC(N)C(O)C(C)O1 (centres undefined)
active

Test call, this molecule: Cc1ccc(NS(=O)(=O)c2ccc(C(=O)NCCCN3CCCC3=O)cc2)cc1
inactive

Test call, this molecule: CCOc1ccccc1N1CCN(C(=O)c2ccc3nc(N)sc3c2)CC1
inactive

Test call, this molecule: CC(C)=C[C@@H]1C[C@H](C)[C@H]2CC[C@H](C)c3c(O[C@@H]4O[C@@H](C)[C@@H](O)[C@@H](O)[C@@H]4O)c(O)c(C)c1c32
inactive
